# Tested on: A. niger ATCC 16404
# ASSAY: Antifungal MIC, broth dilution
# Type: cell-based, Aspergillus niger
# APPLIED_CONDITIONS: Aspergillus niger, ATCC16404, RPMI 1640 with MOPS, end point 48 hours, read-out: An01 MIC50
# Procedure: The compounds of Formula 1 were tested for antifungal activity against Candida albicans, Aspergillus niger and Fusarium proliferatum. […] End points were determined after 48 hours visually and by using spectrophotometer wherever necessary. […]
Recorded MIC50 for the following compounds

Example cases with answers are listed next.
COMPOUND	RESULT
COc1ccc(/C=C/C(=O)c2ccc(OCC(O)(Cn3cncn3)c3ccc(F)cc3F)cc2)cc1 (centres unmarked) [Compound 1A-2]	4 µg/mL
O=C(/C=C/c1ccc(Cl)cc1)c1ccc(OC[C@](O)(Cn2cncn2)c2ccc(F)cc2F)cc1 [R-(−)-1A-6]	> 4 µg/mL
COc1ccccc1/C=C/C(=O)c1ccc(OCC(O)(Cn2cncn2)c2ccc(F)cc2F)cc1 (centres unmarked) [Compound 1A-3]	> 8 µg/mL

Exercise: Could you tell me which MIC50 is on file for O=C(/C=C/c1cccs1)c1ccc(OCC(O)(Cn2cncn2)c2ccc(F)cc2F)cc1 (centres unmarked) [Compound 1A-13] ?
Key: > 8 µg/mL

Exercise: Entry O=C(/C=C/c1cccs1)c1ccc(OC[C@](O)(Cn2cncn2)c2ccc(F)cc2F)cc1 [R-(−)-1A-13] please
Key: > 4 µg/mL

Exercise: Item: O=C(/C=C/c1ccccc1)c1ccc(OCC(O)(Cn2cncn2)c2ccc(F)cc2F)cc1 (centres unmarked) [Compound 1A-1]
Key: > 2 µg/mL

Exercise: And for O=C(/C=C/c1ccc2ccccc2c1)c1ccc(OCC(O)(Cn2cncn2)c2ccc(F)cc2F)cc1 (centres unmarked) [Compound 1A-14] ?
Key: > 4 µg/mL

Exercise: Now the compound COc1ccc(/C=C/C(=O)c2ccc(OCC(O)(Cn3cncn3)c3ccc(Br)cc3)cc2)cc1 (centres unmarked) [Compound 1A-11]
Key: > 4 µg/mL
